biological target: Voltage-gated potassium channel subunit beta-2 (Rattus norvegicus); assay: KvBeta positive modulators, primary screen, biochemical, NADPH fluorescence (AID 623); conditions: Recombinant KvBeta, NADPH fluorescence decrease slope, 10 min; at 10 µM; hits give low values;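 further: fluorescence intensity change per second fitted from 20 to 320 s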
compounds and their reported NADPH fluorescence slope
The answer should be a number; do not append a unit.

Solved cases below.
| Compound | Experimental value |
| --- | --- |
| O=C(Nn1cnnc1)C(c1ccccc1)c1ccccc1 | -7.3e-05 |
| Cc1ccc(S(=O)(=O)N2CCN(c3nc(C(C)C)c4c(c3C#N)CC(C)(C)OC4)CC2)cc1 | -8.5e-05 |
| CCN(CC)c1ccc(-c2nn3c(-c4cccnc4)nnc3s2)cc1 | -8.4e-05 |

Q) Field request: NADPH fluorescence slope | item: CCCCCC(=O)N1CC2(CC)CN(C(=O)CCCCC)CC(CC)(C1)C2=O
A) -9.9e-07

Q) Continue with CN=C1c2c(-c3ccccc3)c3cc(OC)ccc3n2CCN1C
A) -9.2e-06

Q) Continue with CC(=O)c1cc2c(=O)c3ccccc3oc2nc1C
A) -4.9e-05

Q) Continue with Cc1nc(-c2c(-c3ccc(O)cc3O)noc2C(F)(F)F)cs1
A) -0.000226

Q) Continue with Clc1ccc2nc(CSc3nc4ccccc4o3)cn2c1
A) -0.000153

Q) Continue with CCC(NC(C)C)C(O)c1ccc(O)c2[nH]c(=O)ccc12 (stereo unspecified)
A) -3.3e-05

Q) Continue with CCN(CC)CC#CCOC(=O)C(O)(c1ccccc1)C1CCCCC1 (stereo unspecified)
A) -7.5e-05

Q) Continue with CC1(C)Cc2c(c(N3CCOCC3)nc3snc(N)c23)CO1
A) -1.1e-05

All values here come from PubChem BioAssay.
